Ref: patent US20110318339A1

molecular target: T1, recombinant human DLL4 (Cat# 1506-D4/CF, R&D Systems) (human, UniProt Q9NR61 27-529); assay: ELISA, DLL4 coated, Fab 11.11 nM
T1 construct: Bought protein; also called hDLL4; rHuman DLL4
Kindly supply the reported ELISA absorbance at 450 nm values for the records listed here.
Please respond with the number in A450 and leave the unit unwritten.

State its ELISA absorbance at 450 nm for this binder: Fab VH5-51_IGHD5-18*01>3_IGHJ4*01 G100K/G104T G24T/S28R/G35V & V3-4_IGLJ1*01 (Fab, V domains shown, Fab made in E. coli: VH on CH1 with His6 and Flag tags (Plasmid A), VL on lambda CL (Plasmid E); also called H: KT TRV & L: wt) VH: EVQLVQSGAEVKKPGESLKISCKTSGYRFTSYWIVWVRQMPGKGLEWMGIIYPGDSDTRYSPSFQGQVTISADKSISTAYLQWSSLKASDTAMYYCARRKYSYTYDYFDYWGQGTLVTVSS VL: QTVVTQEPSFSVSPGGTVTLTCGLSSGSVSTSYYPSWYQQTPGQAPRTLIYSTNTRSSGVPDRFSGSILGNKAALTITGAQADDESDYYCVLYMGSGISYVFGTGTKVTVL
0.04

State its ELISA absorbance at 450 nm for this binder: Fab VH5-51_IGHD5-18*01>3_IGHJ4*01 G100K/G104T G24T/S28R/G35V & V3-4_IGLJ1*01 V91L/S96P (Fab, V domains shown, Fab made in E. coli: VH on CH1 with His6 and Flag tags (Plasmid A), VL on lambda CL (Plasmid E); also called H: KT TRV & L: LP) VH: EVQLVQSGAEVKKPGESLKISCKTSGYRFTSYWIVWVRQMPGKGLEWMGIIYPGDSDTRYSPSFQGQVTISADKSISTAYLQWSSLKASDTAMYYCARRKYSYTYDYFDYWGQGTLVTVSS VL: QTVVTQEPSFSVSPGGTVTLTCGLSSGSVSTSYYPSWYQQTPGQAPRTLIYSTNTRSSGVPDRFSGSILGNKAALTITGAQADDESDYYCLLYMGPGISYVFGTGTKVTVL
0.07

State its ELISA absorbance at 450 nm for this binder: Fab VH5-51_IGHD5-18*01>3_IGHJ4*01 G100K/G104T G24T/S28R/G35V & V3-4_IGLJ1*01 V91L/S96P S52M (Fab, V domains shown, Fab made in E. coli: VH on CH1 with His6 and Flag tags (Plasmid A), VL on lambda CL (Plasmid E); also called H: KT TRV & L: LP S52M) VH: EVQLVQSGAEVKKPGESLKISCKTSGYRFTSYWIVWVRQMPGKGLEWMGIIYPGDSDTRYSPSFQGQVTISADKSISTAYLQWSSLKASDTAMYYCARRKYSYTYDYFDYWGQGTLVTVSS VL: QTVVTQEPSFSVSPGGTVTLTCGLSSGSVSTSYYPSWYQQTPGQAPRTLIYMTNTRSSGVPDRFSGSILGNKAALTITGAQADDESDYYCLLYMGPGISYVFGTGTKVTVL
0.06

State its ELISA absorbance at 450 nm for this binder: Fab VH5-51_IGHD5-18*01>3_IGHJ4*01 G100K/G104T G24T/S28R/G35V & V3-4_IGLJ1*01 V91L/S96P S52G (Fab, V domains shown, Fab made in E. coli: VH on CH1 with His6 and Flag tags (Plasmid A), VL on lambda CL (Plasmid E); also called H: KT TRV & L: LP S52G) VH: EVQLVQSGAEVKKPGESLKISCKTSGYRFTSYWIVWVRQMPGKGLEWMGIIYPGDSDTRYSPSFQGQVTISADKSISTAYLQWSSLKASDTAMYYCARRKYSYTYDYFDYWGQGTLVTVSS VL: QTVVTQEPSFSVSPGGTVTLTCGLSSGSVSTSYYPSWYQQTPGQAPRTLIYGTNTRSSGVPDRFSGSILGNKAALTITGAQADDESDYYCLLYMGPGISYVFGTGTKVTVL
0.17
